# TARGET_OR_TEST_SYSTEM: T1, Bio-P19 member A2E-9 (chain 2 (heavy): C-terminal BirA substrate peptide, biotinylated there by BirA; tag letters not given, left out)
# T1 construct: also called biotinylated control peptide A2E-9/HLA-A*02:01 monomer; not shown: BirA substrate peptide (BSP) tag at the C-terminus of the heavy chain
# T1 sequence (b2m, as listed by the source): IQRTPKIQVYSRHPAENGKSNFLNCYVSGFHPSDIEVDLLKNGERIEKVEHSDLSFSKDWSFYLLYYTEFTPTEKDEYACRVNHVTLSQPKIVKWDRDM
# PROTOCOL_TEXT: phage ELISA, streptavidin plate, anti-M13-HRP

BINDER	binding result
PSA146/HLA-A*02:01-specific scFv phage clone #17 (scFv, V domains shown) VH: QMQLVQSGAEVKKPGESLKISCKGSGYSFTSYWIGWVRQMPGKGLEWMGIIYPGDSDTRYSPSFQGQVTISADKSISTAYLQWSSLKASDTAMYYCARLVVPDAFDIWGQGTMVTVSS VL: QSVVTQPPSVSAAPGQKVTISCSGSSSNIGNNYVSWYQQLPGTAPKLLIYDNYKRPSGIPDRFSGSKSGTSATLGITGLQTGDEADYYCGTWDSSLSAGVFGGGTKLTVLG	no binding
PSA146/HLA-A*02:01-specific scFv phage clone #18 (scFv, V domains shown) VH: QVQLVQSGAEVKKPGESLKISCKGSGYSFTSYWIGWVRQMPGKGLEWMGIIYPGDSDTRYSPSFQGQVTISADKSISTAYLQWSSLKASDTAMYYCARWGSRGFLDAFDIWGQGTMVTVSS VL: QSVVTQPPSVSAAPGQRVTISCSGSSSNIGNNYVSWYQQLPGAAPRLLIYDNDKRPSGIPDRFSGSKSGTSATLGITGLQTGDEADYYCGTWDSSLSSGVFGGGTKLTVLG	no binding
